FYI, the data here is from paper PMC6222898.

Tested on: Trichomonas vaginalis G3 strain
Assay: In vitro antitrichomonal assay (hemocytometer counts)
Assay type: cell-based
Settings: 24 h, read-out: IC50 T. vaginalis
pIC50: −log10 of the molar value.
MEASURE NAME: pIC50

>>> print(df.to_string())
                                   compound  value_comparator  data_value
0  O=C(/C=C/c1ccc([N+](=O)[O-])cc1)Nc1ccc2c(c1)B(O)OC2 [Compound 5c]                 =        4.99
1  COc1ccc(/C=C/C(=O)Nc2ccc3c(c2)B(O)OC3)cc1OC [Compound 5f]                 <        4.30
2  COc1ccc(/C=C/C(=O)Nc2ccc3c(c2)B(O)OC3)cc1 [Compound 5e]                 =        4.93
3  O=C(/C=C/c1cccc([N+](=O)[O-])c1)Nc1ccc2c(c1)B(O)OC2 [Compound 5b]                 =        4.38
4  O=C(/C=C/c1ccccc1)Nc1ccc2c(c1)B(O)OC2 [Compound 5a]                 =        4.82
